Tested on: Peroxisome proliferator-activated receptor gamma (Homo sapiens) (UniProt P37231)
Sequence (P37231 whole entry, looked up): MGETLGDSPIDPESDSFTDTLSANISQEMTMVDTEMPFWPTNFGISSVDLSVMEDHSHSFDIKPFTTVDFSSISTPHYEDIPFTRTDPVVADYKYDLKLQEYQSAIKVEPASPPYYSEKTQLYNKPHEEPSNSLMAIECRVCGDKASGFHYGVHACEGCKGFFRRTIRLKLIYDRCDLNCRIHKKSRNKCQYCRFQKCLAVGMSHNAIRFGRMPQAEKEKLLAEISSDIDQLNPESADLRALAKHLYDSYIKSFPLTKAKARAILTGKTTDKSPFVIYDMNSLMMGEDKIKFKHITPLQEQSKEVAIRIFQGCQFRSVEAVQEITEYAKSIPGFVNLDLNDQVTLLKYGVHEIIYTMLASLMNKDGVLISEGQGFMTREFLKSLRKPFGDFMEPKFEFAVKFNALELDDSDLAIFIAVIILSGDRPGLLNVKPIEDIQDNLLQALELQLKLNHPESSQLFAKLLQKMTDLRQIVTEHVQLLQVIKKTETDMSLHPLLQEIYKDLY
Experiment description: qHTS assay to identify small molecule antagonists of the peroxisome proliferator-activated receptor gamma (PPARg) signaling pathway (AID 743191); note: nearly all actives have a fitted effect of over 30% in size
Experimental context: HEK293H PPARg-UAS-bla, beta-lactamase ratio, antagonist, 17 h; series mostly up to 62.6 µM
Results filed as inconclusive are left out. The source made the active and inactive calls. Calls come from the whole dose curve.
// one of active, inactive, no free text

COc1cc(Cl)c(OC)cc1N ... inactive
CCCCC(CC)COC(=O)CCCCCCCCC(=O)OCC(CC)CCCC (configuration not stated) ... inactive
CCC(CC)Nc1ccc(C)c(C)c1 ... inactive
O=C(O)CC(=O)C(=O)O ... inactive

Lab log entry: NCC(=O)O — outcome as called in the assay?
inactive

Assay outcome for COc1ccc(C(=O)Nc2nc3ccccc3c(NCc3ccccc3)c2C#N)cc1 : what was it?
active

Outcome? CC(=O)OC[C@H]1O[C@@H](n2ncc(=O)[nH]c2=O)[C@H](OC(C)=O)[C@@H]1OC(C)=O
active

# lookup: test call for COC(C)OC
inactive

Outcome? C#Cc1cccc(Nc2ncnc3cc(OCCOC)c(OCCOC)cc23)c1
inactive

Hello, I am checking results. What call was entered for CN(C)C(=O)NC1(c2ccccc2)CCN(CC[C@@]2(c3ccc(F)c(F)c3)CN(C(=O)c3ccccc3)CCO2)CC1 ?
inactive

# outcome recorded in this test, key = COCC(C)OC(C)=O (configuration not stated)
inactive

Hi team, can someone confirm the assay call for C#CCN(C)CCCOc1ccc(Cl)cc1Cl ?
inactive

----------
Attribute: activity change, negative = cytotoxicity
Experiment description: Caspase-3/7 induction in CHO-K1 cells by small molecules, qHTS cell viability counter screen (AID 1346979); note: % is set by controls: 0 for no effect and ±100 for the full control effect; nearly all actives have a fitted effect of over 35% in size
Experimental context: CellTiter-Fluor fluorescence, 17 h; series mostly up to 92.4 µM
Results filed as inconclusive are left out. Calls of active or inactive are those of the source. Calls come from the whole dose curve; as a rule, active = well fitted cell-killing curve with a large enough effect in the repeat runs; inconclusive = weak or mixed curves, or effect the other way; inactive = no such curve, though single readings can be large or run the other way.

NC(N)=NCCC[C@H](N)C(=O)O ... -0.503% [at 8.39 µM] (inactive)
C/C(=C(\CCOP(=O)(O)O)SC(=O)c1ccccc1)N(C=O)Cc1cnc(C)nc1N ... 2.5% [at 8.39 µM] (inactive)

Per the records, this compound ( Cc1[nH]c(C)c(Cl)c(=O)c1Cl ) has activity change, negative = cytotoxicity equal to 1.93% [at 19 µM] (inactive)

Summary for this compound, NCC(=O)O : activity change, negative = cytotoxicity is 7.68% [at 19 µM] (inactive)

----------
Tested on: Voltage-gated inwardly rectifying potassium channel KCNH2 (Homo sapiens)
Experiment description: Human Ether-a-go-go-Related Gene (hERG) channel small molecule antagonists: fluorescence cell-based qHTS assay (AID 1671200); note: nearly all actives have a fitted effect of over 50% in size; note: potency is the fitted concentration of half-maximal effect
Experimental context: hERG-U2OS cells, FluxOR thallium flux fluorescence; series mostly up to 76.8 µM
Inconclusive results are not listed. The source made the active and inactive calls. The call rests on the fitted dose curve; in most records, active means well fitted inhibition curve with a large enough effect in the repeat runs; inconclusive means weak or mixed curves; inactive means flat fitted curve, though single readings scatter.
Metric name: Potency

Below, 6 compounds whose answers are already recorded.
C=C1[C@H]2CC[C@@H]3[C@H]2C(C)(C)CCC[C@]13C ... inactive
O=CC1CC=CCC1 (stereo not drawn) ... inactive
OCc1cc(C(O)CNCCCCCCOCCCCc2ccccc2)ccc1O (stereo not drawn) ... 2.68 µM (active)
CCCCCCCCO[C@@H]1O[C@H](CO)[C@@H](O)[C@H](O)[C@H]1O ... inactive
O=C1C(O)=C(O)C(=O)C(O)=C1O ... inactive
NCCCN1CCOCC1 ... inactive

Test item CCN(CC)CCNc1ccc(CNC=O)c2sc3ccc(OC)cc3c(=O)c12 ; Voltage-gated inwardly rectifying potassium channel KCNH2 (Homo sapiens); reported Potency was inactive

Response field Potency (Voltage-gated inwardly rectifying potassium channel KCNH2 (Homo sapiens)) for item CCCCCCCCCCCCN1CCCCCC1=O : inactive

Entry O=[N+]([O-])c1ccc(NCCO)c(OCCO)c1 , Voltage-gated inwardly rectifying potassium channel KCNH2 (Homo sapiens) data, Potency value: inactive

Voltage-gated inwardly rectifying potassium channel KCNH2 (Homo sapiens) data for CC1=CC=C(C(C)C)CC1 ; its Potency: inactive

Log: Voltage-gated inwardly rectifying potassium channel KCNH2 (Homo sapiens), compound C=CC(=O)OCCOc1ccccc1 , Potency = inactive

The value of Potency recorded for OC(CN1CCC(Cc2ccc(F)cc2)CC1)c1ccc(Cl)cc1 (stereo not drawn) when tested on Voltage-gated inwardly rectifying potassium channel KCNH2 (Homo sapiens) reads 0.0849 µM (active)

Entry CCO[Si](CCCCl)(OCC)OCC : Potency on Voltage-gated inwardly rectifying potassium channel KCNH2 (Homo sapiens) = inactive
